# methodSummary: Phase I trial of oral PCLX-001: plasma pharmacokinetics, noncompartmental analysis (Phoenix WinNonlin 8.3)
# Assay type: in vivo, human
# conditionSet: human, plasma, oral, 40 mg, Table 4; not on Pantoprazole; 40 mg; N 1; Day 15; read-out: AUClast
measuredParameter: AUC(0-t) (µg·h/mL)
Give bare numbers, in µg·h/mL.

Please fill in: AUC(0-t) reported for Cc1c(NS(=O)(=O)c2c(Cl)cc(-c3ccnc(N4CCNCC4)c3)cc2Cl)c(CC(C)C)nn1C [PCLX-001] = 13.7

----------
# methodSummary: Phase I trial of oral PCLX-001: plasma pharmacokinetics, noncompartmental analysis (Phoenix WinNonlin 8.3)
# Type: in vivo, human
# conditionSet: human, plasma, po, 20 mg, Table 6; Patient 115-002-002; Day 15; 20 mg QD oral; Pantoprazole No
measuredParameter: AUC(0-inf)

According to the records, this compound Cc1c(NS(=O)(=O)c2c(Cl)cc(-c3ccnc(N4CCNCC4)c3)cc2Cl)c(CC(C)C)nn1C displays AUC(0-inf) of 2440 ng·h/mL

----------
# methodSummary: Phase I trial of oral PCLX-001: plasma pharmacokinetics, noncompartmental analysis (Phoenix WinNonlin 8.3)
# Assay type: in vivo, human
# conditionSet: human, plasma, po, 20 mg, Table 1A; Patient 115-002-002 (Patient 2); Day 1; 20 mg oral daily; read-out: AUClast or AUCtau
measuredParameter: AUC(0-t) (ng·h/mL)
Answers are plain numbers, in ng·h/mL.

Sample Cc1c(NS(=O)(=O)c2c(Cl)cc(-c3ccnc(N4CCNCC4)c3)cc2Cl)c(CC(C)C)nn1C ; AUC(0-t) observed: 1300

----------
# methodSummary: Phase I trial of oral PCLX-001: plasma pharmacokinetics, noncompartmental analysis (Phoenix WinNonlin 8.3)
# Assay type: in vivo, human
# conditionSet: human, plasma, po, 140 mg, Table 10; Patient 115-024-005; Day 1; Dose 140 mg QD oral; Concomitant Pantoprazole Yes; read-out: Tmax
# Excerpt: The clinical trial is entitled “Phase I Trial of PCLX-001 in B-cell Non-Hodgkin Lymphoma and Advanced Solid Malignancies” and registered at clinicaltrials.gov as NCT04836195. It is a phase I dose-escalation study of oral PCLX-001, conducted in a multicenter, non-randomized, open-label, non-controlled design. The study is comprised of two parts: Part A (single-agent dose escalation) and Part B (single-agent expansion cohorts). […]
measuredParameter: Tmax
Number first, unit second: that is the form wanted.

Entry under test: Cc1c(NS(=O)(=O)c2c(Cl)cc(-c3ccnc(N4CCNCC4)c3)cc2Cl)c(CC(C)C)nn1C . Its Tmax was 1 h

----------
# methodSummary: Phase I trial of oral PCLX-001: plasma pharmacokinetics, noncompartmental analysis (Phoenix WinNonlin 8.3)
# Type: in vivo, human
# conditionSet: human, plasma, po, 20 mg, Table 6; Patient 115-002-004; Day 15; 20 mg QD oral; Pantoprazole No; read-out: Tmax
measuredParameter: Tmax (min)
Give bare numbers, in min.

Please fill in: Tmax reported for Cc1c(NS(=O)(=O)c2c(Cl)cc(-c3ccnc(N4CCNCC4)c3)cc2Cl)c(CC(C)C)nn1C = 30

----------
# methodSummary: Phase I trial of oral PCLX-001: plasma pharmacokinetics, noncompartmental analysis (Phoenix WinNonlin 8.3)
# Type: in vivo, human
# conditionSet: human, plasma, oral, 140 mg, Table 4; Mean; not on Pantoprazole; 140 mg; N 1; Day 15; read-out: AUClast
measuredParameter: AUC(0-t) (ng·h/mL)
Give bare numbers, in ng·h/mL.

The molecule listed as Cc1c(NS(=O)(=O)c2c(Cl)cc(-c3ccnc(N4CCNCC4)c3)cc2Cl)c(CC(C)C)nn1C [PCLX-001] has a reported AUC(0-t) of 7680

----------
# methodSummary: Phase I trial of oral PCLX-001: plasma pharmacokinetics, noncompartmental analysis (Phoenix WinNonlin 8.3)
# Assay type: in vivo, human
# conditionSet: human, plasma, po, 140 mg, Table 10; Patient 115-002-006; Day 1; Dose 140 mg QD oral; Concomitant Pantoprazole No
measuredParameter: Cmax (µg/mL)
Numbers only, in µg/mL.

Form field Cmax, entry Cc1c(NS(=O)(=O)c2c(Cl)cc(-c3ccnc(N4CCNCC4)c3)cc2Cl)c(CC(C)C)nn1C : 2.71

----------
# methodSummary: Phase I trial of oral PCLX-001: plasma pharmacokinetics, noncompartmental analysis (Phoenix WinNonlin 8.3)
# Assay type: in vivo, human
# conditionSet: human, plasma, po, 20 mg, Table 6; Patient 115-002-002; Day 15; 20 mg QD oral; Pantoprazole No; read-out: AUClast or AUCtau
measuredParameter: AUC(0-t)
Answer by giving the amount and then stating its unit.

// AUC(0-t) value for Cc1c(NS(=O)(=O)c2c(Cl)cc(-c3ccnc(N4CCNCC4)c3)cc2Cl)c(CC(C)C)nn1C [PCLX-001] : 2010 ng·h/mL

----------
# methodSummary: Phase I trial of oral PCLX-001: plasma pharmacokinetics, noncompartmental analysis (Phoenix WinNonlin 8.3)
# Format: in vivo, human
# conditionSet: human, plasma, po, 100 mg, Table 9; Patient 115-002-011; Day 1; 100 mg QD oral; Pantoprazole No
measuredParameter: AUC(0-inf) (ng·h/mL)
One number for each entry, in ng·h/mL.

Entry Cc1c(NS(=O)(=O)c2c(Cl)cc(-c3ccnc(N4CCNCC4)c3)cc2Cl)c(CC(C)C)nn1C ; AUC(0-inf) = 16200

----------
# methodSummary: Phase I trial of oral PCLX-001: plasma pharmacokinetics, noncompartmental analysis (Phoenix WinNonlin 8.3)
# Format: in vivo, human
# conditionSet: human, plasma, po, 20 mg, Table 1A; Patient 115-002-002 (Patient 2); Day 15; 20 mg oral daily; read-out: Tmax
# Description: The clinical trial is entitled “Phase I Trial of PCLX-001 in B-cell Non-Hodgkin Lymphoma and Advanced Solid Malignancies” and registered at clinicaltrials.gov as NCT04836195. It is a phase I dose-escalation study of oral PCLX-001, conducted in a multicenter, non-randomized, open-label, non-controlled design. The study is comprised of two parts: Part A (single-agent dose escalation) and Part B (single-agent expansion cohorts). […]
measuredParameter: Tmax (h)
Numbers only, in h.

Value of measured Tmax for the entry Cc1c(NS(=O)(=O)c2c(Cl)cc(-c3ccnc(N4CCNCC4)c3)cc2Cl)c(CC(C)C)nn1C : 2

----------
# methodSummary: Phase I trial of oral PCLX-001: plasma pharmacokinetics, noncompartmental analysis (Phoenix WinNonlin 8.3)
# Format: in vivo, human
# conditionSet: human, plasma, po, 70 mg, Table 8; Patient 115-002-007; Day 15; 70 mg QD oral; Pantoprazole Yes; read-out: AUClast or AUCtau
measuredParameter: AUC(0-t) (ng·h/mL)
Numbers only, in ng·h/mL.

The value of AUC(0-t) measured for the compound Cc1c(NS(=O)(=O)c2c(Cl)cc(-c3ccnc(N4CCNCC4)c3)cc2Cl)c(CC(C)C)nn1C turned out to be 8130

----------
# methodSummary: Phase I trial of oral PCLX-001: plasma pharmacokinetics, noncompartmental analysis (Phoenix WinNonlin 8.3)
# Type: in vivo, human
# conditionSet: human, plasma, po, 40 mg, Table 7; Patient 115-002-006; Day 15; 40 mg QD oral; Pantoprazole Yes
measuredParameter: Cmax (ng/mL)
Answers are plain numbers, in ng/mL.

Input Cc1c(NS(=O)(=O)c2c(Cl)cc(-c3ccnc(N4CCNCC4)c3)cc2Cl)c(CC(C)C)nn1C . Output Cmax: 40.8

----------
# methodSummary: in vivo
# conditionSet: rat, plasma, po
measuredParameter: Cmax (ng/mL)
Give bare numbers, in ng/mL.

response.value for Cc1c(NS(=O)(=O)c2c(Cl)cc(-c3ccnc(N4CCNCC4)c3)cc2Cl)c(CC(C)C)nn1C (field: Cmax) = 3110

----------
# methodSummary: Phase I trial of oral PCLX-001: plasma pharmacokinetics, noncompartmental analysis (Phoenix WinNonlin 8.3)
# Assay type: in vivo, human
# conditionSet: human, plasma, oral, 20 mg, Table 4; Mean (CV); not on Pantoprazole; 20 mg; N 3; Day 1; read-out: t½ (converted)
measuredParameter: half-life (h)
Give bare numbers, in h.

half-life measured on Cc1c(NS(=O)(=O)c2c(Cl)cc(-c3ccnc(N4CCNCC4)c3)cc2Cl)c(CC(C)C)nn1C [PCLX-001] = 6.93

----------
# methodSummary: Phase I trial of oral PCLX-001: plasma pharmacokinetics, noncompartmental analysis (Phoenix WinNonlin 8.3)
# Type: in vivo, human
# conditionSet: human, plasma, oral, 140 mg, Table 4; not on Pantoprazole; 140 mg; N 1; Day 1; read-out: AUClast
measuredParameter: AUC(0-t) (ng·h/mL)
Numbers only, in ng·h/mL.

So for Cc1c(NS(=O)(=O)c2c(Cl)cc(-c3ccnc(N4CCNCC4)c3)cc2Cl)c(CC(C)C)nn1C , the logged AUC(0-t) turned out to be 21200
